System: Community 7
Test: relative growth (AUC of 72 h growth curve relative to DMSO control, dAUC) (ratio); higher = more growth (less inhibition), active = hit call of the paper
Details: 20 µM
quantityKind: relative growth
The reply should be a number, written without any unit.

Examples with their reported relative growth follow.
Tell us which relative growth value is on record for O=[N+]([O-])c1cc(C(F)(F)F)c(Cl)c([N+](=O)[O-])c1Nc1ncc(C(F)(F)F)cc1Cl
0.794

Tell us which relative growth value is on record for O=C(Nc1ccccc1-c1ccc(Cl)cc1)c1cccnc1Cl
1

Tell us which relative growth value is on record for CCc1cc(C)cc(CC)c1-c1c(OC(=O)C(C)(C)C)n2n(c1=O)CCOCC2
1.05

Tell us which relative growth value is on record for COc1ccc(C(=CC(=O)N2CCOCC2)c2ccc(Cl)cc2)cc1OC (mixture of isomers)
0.947

Tell us which relative growth value is on record for CC1(C)CON(Cc2ccccc2Cl)C1=O
1.08

Tell us which relative growth value is on record for CC1COC(Cn2cncn2)(c2ccc(Oc3ccc(Cl)cc3)cc2Cl)O1 (centres undefined)
1.02

Tell us which relative growth value is on record for Cc1nc(N(C)C)nc(OC(=O)N(C)C)c1C
1.12

Tell us which relative growth value is on record for CCOC(=O)CC(SP(=S)(OC)OC)C(=O)OCC (centres undefined)
1.04

Tell us which relative growth value is on record for COc1ncc(F)c2nc(S(=O)(=O)Nc3c(F)cccc3F)nn12
0.948

Tell us which relative growth value is on record for CC(C)OC(=O)C(C(=O)OC(C)C)=C1SCCS1
1.15

---
Tell us which relative growth value is on record for CC1(C)C(C=C(Cl)Cl)C1C(=O)OC(C#N)c1cccc(Oc2ccccc2)c1 (centres undefined)
0.963

Tell us which relative growth value is on record for C[N+](C)(C)CCCl
0.749

Tell us which relative growth value is on record for Oc1ccccc1-c1ccccc1
1.12

Tell us which relative growth value is on record for COC(=O)c1ccccc1S(=O)(=O)NC(=O)Nc1nc(C)nc(OC)n1
0.941

Tell us which relative growth value is on record for CCC(C)c1ccccc1OC(=O)NC (centres undefined)
1.02

The measured values listed here are drawn from the supplement of paper PMC12067926.
